Tested on: HCV genotype 1a replicon
TEST_DESCRIPTION: HCV replicon assay, genotype 1a (cell ELISA for NS3/4A)
Type: cell-based, hepatitis C virus
ASSAY_CONDITIONS: read-out: 1a IC50; genotype 1a replicon cells, 96 hours incubation, NS3/4A ELISA
pIC50: −log10 of the molar value.
Recorded pIC50 by entry
REPORTED_PROPERTY: pIC50

- CNC(=O)c1c(-c2ccc(F)cc2)oc2cc(N(C)S(C)(=O)=O)c(-c3ccc4c(n3)-c3cc5c(F)cccc5n3C(CS(C)(=O)=O)C4)cc12 (single isomer, unassigned) [Example 57]: 8.09
- CNC(=O)c1c(-c2ccc(F)cc2)oc2cc(N(C)S(C)(=O)=O)c(-c3cc4c(cn3)CC(C)n3c-4cc4c(F)cccc43)cc12 (single isomer, unassigned) [Example 42]: 8.51
- CNC(=O)c1c(-c2ccc(F)cc2)oc2cc(N(C)S(C)(=O)=O)c(-c3ccc4c(n3)-c3cc5c(F)cccc5n3C(CS(C)(=O)=O)C4)cc12 (single isomer, unassigned) [Example 56]: 8.47
- CNC(=O)c1c(-c2ccc(F)cc2)oc2cc(N(C)S(C)(=O)=O)c(-c3cc4c(cn3)C(C)Cn3c-4cc4c(F)cccc43)cc12 (single isomer, unassigned) [Example 61]: 8.64
- CNC(=O)c1c(-c2ccc(F)cc2)oc2cc(N(C)S(C)(=O)=O)c(-c3cc4c(cn3)CC(C)n3c-4cc4c(F)cccc43)cc12 (single isomer, unassigned) [Example 41]: 7.72
- CNC(=O)c1c(-c2ccc(F)cc2)oc2cc(N(C)S(C)(=O)=O)c(-c3ccc4c(n3)-c3cc5c(F)cccc5n3C(CO)C4)cc12 (centres unmarked) [Example 54]: 8.81
- CNC(=O)c1c(-c2ccc(F)cc2F)oc2cc(N(C)S(C)(=O)=O)c(-c3ccc4c(n3)-c3cc5c(F)cccc5n3C(CS(C)(=O)=O)C4)cc12 (centres unmarked) [Example 59]: 8.26
- CNC(=O)c1c(-c2ccc(C)nc2)oc2cc(N(C)S(C)(=O)=O)c(-c3ccc4c(n3)-c3cc5c(F)cccc5n3C(CCN3CC(F)C3)C4)cc12 (centres unmarked) [Example 68]: 7.15
- CNC(=O)c1c(-c2ccc(F)cc2)oc2cc(N(C)S(C)(=O)=O)c(-c3cc4c(cn3)C(C)Cn3c-4cc4c(F)cccc43)cc12 (single isomer, unassigned) [Example 60]: 8.30
- CNC(=O)c1c(-c2ccc(F)cc2)oc2cc(N(C)S(C)(=O)=O)c(-c3ccc4c(n3)-c3cc5c(F)cccc5n3C(CO)C4)cc12 (centres unmarked) [Example 52]: 8.48
- CNC(=O)c1c(-c2ccc(F)cc2)oc2cc(N(C)S(C)(=O)=O)c(-c3ccc4c(n3)-c3cc5c(F)cccc5n3C(CO)C4)cc12 (centres unmarked) [Example 53]: 8.09

* * *

Test system: HCV genotype 1a replicon
TEST_DESCRIPTION: HCV replicon assay, genotype 1a (cell ELISA for NS3/4A)
Type: cell-based, hepatitis C virus
ASSAY_CONDITIONS: read-out: 1a IC50; genotype 1a replicon cells, 96 hours incubation, NS3/4A ELISA
Experimental: Measurement of inhibition by compounds was performed using the HCV replicon system. Several different replicons encoding different HCV genotypes or mutations were used. […] Stable neomycin phosphotransferase encoding replicons-harboring cell lines were used, so all cell lines were maintained under G418 selection prior to the assay. […] RNA was quantified indirectly through detection of replicon-encoded NS3/4A protein levels, through an ELISA-based assay with an antibody specific for NS3/4A. […]
pIC50: −log10 of the molar value.
REPORTED_PROPERTY: pIC50

• CNC(=O)c1c(-c2ccc(C)nc2)oc2cc(N(C)S(C)(=O)=O)c(-c3ccc4c(n3)-c3cc5c(F)cccc5n3C(CCN3CC(F)C3)C4)cc12 (stereo not drawn) [Example 67] = 7.90
• CNC(=O)c1c(-c2ccc(F)cc2F)oc2cc(N(C)S(C)(=O)=O)c(-c3ccc4c(n3)-c3cc5c(F)cccc5n3C(CS(C)(=O)=O)C4)cc12 (stereo not drawn) [Example 58] = 8.82
• CNC(=O)c1c(-c2ccc(C)nc2)oc2cc(N(C)S(C)(=O)=O)c(-c3ccc4c(n3)-c3cc5c(F)cccc5n3C(CCN3CC(F)C3)C4)cc12 (stereo not drawn) [Example 66] = 7.89

All figures here come from patent US9243002B2.
